The measurements presented in this section are drawn from patent US4440757A.

- System: Salmonella typhimurium TA 100
- measurement_protocol: Mutagenicity, reversion assay, TA 100
- Type: cell-based
- measurement_conditions: 5,000 μg/plate; control 149
result_type: Number of revertant colonies TA 100 (number per plate)
One number for each entry, in number per plate.

Hi team, please reply with Number of revertant colonies TA 100 for each item in this list.
1. COC(=O)c1ccccc1NC1O[C@H](CO)[C@@H](O)[C@H](O)[C@@H]1O (stereo partly drawn) [Specimen No. 11, Methyl o-aminobenzoate-N--D-mannoside]
2. C[C@@H]1OC(Nc2ccccc2C(=O)O)[C@H](O)[C@H](O)[C@H]1O (stereo partly drawn) [Specimen No. 2, Sodium o-aminobenzoate-N--L-rhamnoside]
3. O=C(O)c1ccc(NC2OC[C@@H](O)[C@H](O)[C@H]2O)cc1 (stereo partly drawn) [Specimen No. 7, Sodium p-aminobenzoate-N--D-xyloside]
4. O=C(O)c1ccc(NC2O[C@H](CO)[C@@H](O)[C@H](O)[C@@H]2O)cc1 (stereo partly drawn) [Specimen No. 4, Sodium p-aminobenzoate-N--D-mannoside]
5. O=C(O)c1ccc(NC2(CO)OC[C@@H](O)[C@@H](O)[C@@H]2O)cc1 (stereo partly drawn) [Specimen No. 9, Sodium p-aminobenzoate-N--D-fructoside]

1: 95; 2: 61; 3: 58; 4: 138; 5: 95

Hi team, please reply with Number of revertant colonies TA 100 for each item in this list.
1. C[C@@H]1OC(Nc2ccc(C(=O)O)cc2)[C@H](O)[C@H](O)[C@H]1O (stereo partly drawn) [Specimen No. 8, Sodium p-aminobenzoate-N--L-rhamnoside]
2. O=C(O)c1ccc(NC2O[C@H](CO)[C@H](O)[C@H](O)[C@H]2O)cc1 (stereo partly drawn) [Specimen No. 6, Sodium p-aminobenzoate-N--D-galactoside]
3. O=C(O)c1ccc(NC2O[C@H](CO)[C@@H](O)[C@H](O)[C@H]2O)cc1 (stereo partly drawn) [Specimen No. 5, Sodium p-aminobenzoate-N--D-glucoside]
4. O=C(O)c1cccc(NC2O[C@H](CO)[C@@H](O)[C@H](O)[C@@H]2O)c1 (stereo partly drawn) [Specimen No. 3, Sodium m-aminobenzoate-N--D-mannoside]
5. O=C(O)c1ccccc1NC1O[C@H](CO)[C@H](O)[C@H](O)[C@H]1O (stereo partly drawn) [Specimen No. 1, Sodium o-aminobenzoate-N--D-galactoside]
6. O=C(O)c1ccc(NC2OC[C@H](O)[C@H](O)[C@H]2O)cc1 (stereo partly drawn) [Specimen No. 10, Sodium p-aminobenzoate-N--L-arabinoside]

73
51
104
90
151
51

###

- Tested on: Ehrlich cancer
- measurement_protocol: Cancer proliferation and PGE in the cancer cells (Ehrlich)
- Assay type: in vivo, C57BL/6 mouse
- measurement_conditions: 100 mg/kg i.p. every other day, 14th day; control 1.30
Sorting guide: entries reporting Weight of cancer beneath 0.7 g go in the class 1 pile, the rest go in the class 0 pile.

Example results:
- compound: "O=C(O)c1ccc(NC2O[C@H](CO)[C@H](O)[C@H](O)[C@H]2O)cc1 (stereo partly drawn) [Specimen No. 6, Sodium p-aminobenzoate-N--D-galactoside]"
  class_assignment: "class 1"
- compound: "O=C(O)c1cccc(NC2O[C@H](CO)[C@@H](O)[C@H](O)[C@@H]2O)c1 (stereo partly drawn) [Specimen No. 3, Sodium m-aminobenzoate-N--D-mannoside]"
  class_assignment: "class 0"

Strictly below 0.7 g: is that where Weight of cancer of C[C@@H]1OC(Nc2ccccc2C(=O)O)[C@H](O)[C@H](O)[C@H]1O (stereo partly drawn) [Specimen No. 2, Sodium o-aminobenzoate-N--L-rhamnoside] sits? class 0

Please answer likewise for O=C(O)c1ccccc1NC1O[C@H](CO)[C@H](O)[C@H](O)[C@H]1O (stereo partly drawn) [Specimen No. 1, Sodium o-aminobenzoate-N--D-galactoside] class 1

Please answer likewise for O=C(O)c1ccc(NC2(CO)OC[C@@H](O)[C@@H](O)[C@@H]2O)cc1 (stereo partly drawn) [Specimen No. 9, Sodium p-aminobenzoate-N--D-fructoside] class 0

Please answer likewise for O=C(O)c1ccc(NC2O[C@H](CO)[C@@H](O)[C@H](O)[C@@H]2O)cc1 (stereo partly drawn) [Specimen No. 4, Sodium p-aminobenzoate-N--D-mannoside] class 1

Please answer likewise for O=C(O)c1ccc(NC2OC[C@@H](O)[C@H](O)[C@H]2O)cc1 (stereo partly drawn) [Specimen No. 7, Sodium p-aminobenzoate-N--D-xyloside] class 0
